Test system: umbrella sedge (Cyperus difformis)
Assay: Test B flooded paddy test
Assay type: in vivo
Conditions: Flood, 31 g ai/ha; scale 0 to 100 (0 no effect, 100 complete control)
Lab note: compare Sedge, Umbrella plant response rating with 40, writing MET if less and NOT MET if equal or more.

| Molecule | Assigned Category |
| --- | --- |
| CCCn1c(-c2ccsc2)ncc(C(=O)C2=C(O)CCCC2=O)c1=O | NOT MET |

Query: Field: below-cutoff. Rule: recorded Sedge, Umbrella plant response rating strictly less than 40. Subject: C#Cc1ccc(-c2ncc(C(=O)C3=C(O)C4CCC(C4)C3=O)c(=O)n2C2CCCCC2)cc1 (centres unmarked)
Reply: MET

* * *

Tested on: wild oat (Avena fatua)
Assay: Test B pre-/postemergence plant response
Format: in vivo
Conditions: Preemergence, 125 g ai/ha; 0 to 100 scale
Give Oat, Wild plant response rating for every item shown.

Look over these answered cases.
| Smiles Entry | Oat, Wild plant response rating |
| --- | --- |
| O=C1CCCC(O)=C1C(=O)c1cnc(-c2cccc(Cl)c2)n(-c2ccccc2)c1=O | 30 |
| Cc1cccc(-n2c(-c3cccc(Cl)c3)ncc(C(=O)C3=C(O)CCCC3=O)c2=O)c1 | 0 |

Each molecule below has a recorded value; state its Oat, Wild plant response rating.
1. Cc1cc(F)ccc1-n1c(-c2ccccc2)ncc(C(=O)C2=C(O)CCCC2=O)c1=O
2. Cc1c(F)cccc1-n1c(-c2ccccc2)ncc(C(=O)C2=C(O)CCCC2=O)c1=O
3. O=C1CCCC(O)=C1C(=O)c1cnc(-c2ccccc2)n(-c2ccccc2)c1=O

Reply:
0
0
50

* * *

Can you tell me Plant response rating, Lambsquarters for the items I'm about to list?
Tested on: lambsquarters (Chenopodium album)
Test: Test B pre-/postemergence plant response
Format: in vivo
Settings: Preemergence, 31 g ai/ha; scale 0 to 100 (0 no effect, 100 complete control)
Description: […] Treated plants and controls were maintained in a greenhouse for 13 to 15 days, after which time all treated plants were visually evaluated and compared to controls. […]

| Compound | Target Entity | Plant response rating, Lambsquarters |
| --- | --- | --- |
| Cc1ccc(-n2c(-c3cccc(Cl)c3)ncc(C(=O)C3=C(O)CCCC3=O)c2=O)cc1 [Compound 39] | lambsquarters (Chenopodium album) | 100 |
| CCCc1ncc(C(=O)C2=C(O)CCCC2=O)c(=O)n1CCC [Compound 72] | lambsquarters (Chenopodium album) | 98 |
| Cc1cccc(-n2c(-c3cccc(Cl)c3)ncc(C(=O)C3=C(O)CCCC3=O)c2=O)c1 [Compound 45] | lambsquarters (Chenopodium album) | 100 |
| O=C1CCCC(O)=C1C(=O)c1cnc(-c2cccs2)n(-c2ccccc2)c1=O [Compound 66] | lambsquarters (Chenopodium album) | 98 |
| O=C1CCCC(O)=C1C(=O)c1cnc(-c2ccccc2)n(-c2ccc(F)cc2)c1=O [Compound 24] | lambsquarters (Chenopodium album) | 98 |

Return reported Plant response rating, Lambsquarters values for all items listed beneath this line.
1. CCCCn1c(CCC)ncc(C(=O)C2=C(O)CCCC2=O)c1=O [Compound 75]
2. O=C1CCCC(O)=C1C(=O)c1cnc(-c2cccc(Br)c2)n(-c2ccccc2)c1=O [Compound 69]

Reply:
[98, 98]

Query: May I ask what Plant response rating, Lambsquarters has been recorded for Cc1cc(F)ccc1-n1c(-c2ccccc2)ncc(C(=O)C2=C(O)CCCC2=O)c1=O [Compound 48] ?
Reply: 100

* * *

Tested on: yellow nutsedge (Cyperus esculentus)
Assay: Test B pre-/postemergence plant response
Assay type: in vivo
Conditions: 31 g ai/ha, postemergence; scale 0 to 100, 0 is no effect, 100 is complete control
Recorded Metric: Plant response rating, Nutsedge, Yellow
Give bare numbers.

Worked cases, Plant response rating, Nutsedge, Yellow given:
| Smiles Entry | Plant response rating, Nutsedge, Yellow |
| --- | --- |
| COCCn1c(-c2ccco2)ncc(C(=O)C2=C(O)CCCC2=O)c1=O | 65 |
| COCCOCCn1c(-c2ccccc2)ncc(C(=O)C2=C(O)CCCC2=O)c1=O | 50 |
| CCCCCCn1c(-c2ccccc2)ncc(C(=O)C2=C(O)CCCC2=O)c1=O | 20 |

# evaluate next
Query: Can you look up the measured Plant response rating, Nutsedge, Yellow of `Cc1ccc(Cl)cc1-n1c(-c2ccccc2)ncc(C(=O)C2=C(O)CCCC2=O)c1=O` for me?
Reply: 20

* * *

Would you mind telling me the reported Plant response rating, Oat, Wild of each entry?
Test system: wild oat (Avena fatua)
Experiment: Test B pre-/postemergence plant response
Type: in vivo
Conditions: Postemergence, 125 g ai/ha; scale 0 to 100 (0 no effect, 100 complete control)
One number for each entry.

| Compound | Plant response rating, Oat, Wild |
| --- | --- |
| CCCn1c(-c2cccc(OC)c2)ncc(C(=O)C2=C(O)CCCC2=O)c1=O | 30 |
| O=C1CCCC(O)=C1C(=O)c1cnc(-c2ccccc2)n(C2CC[S+]([O-])CC2)c1=O (mixture of isomers) | 85 |
| O=C1CCCC(O)=C1C(=O)c1cnc(-c2ccsc2)n(CC2CCCO2)c1=O (stereo not shown) | 20 |

Query: I am curious: what Plant response rating, Oat, Wild value has been reported for `O=C1CCCC(O)=C1C(=O)c1cnc(-c2ccccc2)n(C2CCCCCC2)c1=O` ?
Reply: 40

* * *

Would you kindly list Plant response rating, Blackgrass for each of these compounds?
Test system: blackgrass (Alopecurus myosuroides)
Experiment: Test B pre-/postemergence plant response
Assay type: in vivo
Details: Postemergence; 62 g ai/ha; scale 0 to 100 (0 no effect, 100 complete control)

Reference set, count: 3
| Compound | Plant response rating, Blackgrass |
| --- | --- |
| CCc1cccc(-n2c(-c3ccccc3)ncc(C(=O)C3=C(O)CCCC3=O)c2=O)c1 | 20 |
| CCCc1ncc(C(=O)C2=C(O)CCCC2=O)c(=O)n1-c1ccccc1 | 5 |
| CCn1c(-c2cccc(F)c2)ncc(C(=O)C2=C(O)C3CCC(C3)C2=O)c1=O (stereo not shown) | 5 |

Field: next compound
Query: Please provide the recorded Plant response rating, Blackgrass for `CCCCn1c(C2CC2)ncc(C(=O)C2=C(O)CCCC2=O)c1=O` , tested on blackgrass (Alopecurus myosuroides).
Reply: 15

* * *

Give Plant response rating, Goosegrass for every item shown.
System: goosegrass (Eleusine indica)
Experiment: Test B pre-/postemergence plant response
Type: in vivo
Conditions: Postemergence, 250 g ai/ha; scale 0 to 100 (0 no effect, 100 complete control)
Numbers only.

Look over these answered cases.
| Compound | Val |
| --- | --- |
| CCCCn1c(CCC)ncc(C(=O)C2=C(O)CCCC2=O)c1=O | 98 |
| CCOCCn1c(-c2ccccc2)ncc(C(=O)C2=C(O)CCCC2=O)c1=O | 85 |
| O=C1CCCC(O)=C1C(=O)c1cnc(-c2cccs2)n(CC2CCCO2)c1=O (centres unmarked) | 85 |
| O=C1CCCC(O)=C1C(=O)c1cnc(C2CCCC2)n(-c2ccccc2)c1=O | 90 |

Consider now this further compound.
Query: GET /values?readout=Plant response rating, Goosegrass&item= `O=C1CCCC(O)=C1C(=O)c1cnc(-c2ccsc2)n(C2CCCCC2)c1=O`
Reply: 80

* * *

Please provide measured Plant response rating, Ragweed for the entries that follow.
Test system: ragweed (common ragweed, Ambrosia elatior)
Test: Test B pre-/postemergence plant response
Format: in vivo
Settings: Postemergence, 62 g ai/ha; scale 0 (no effect) to 100 (complete control); 13 to 15 days
From the text: […] Treated plants and controls were maintained in a greenhouse for 13 to 15 days, after which time all treated plants were visually evaluated and compared to controls. […]
Give bare numbers.

Solved cases (3 shown):
| Compound | Plant response rating, Ragweed |
| --- | --- |
| CCCn1c(-c2ccccc2)ncc(C(=O)C2=C(O)CCCC2=O)c1=O [Compound 50] | 90 |
| Cc1ccc(F)c(-n2c(-c3ccccc3)ncc(C(=O)C3=C(O)CCCC3=O)c2=O)c1 [Compound 51] | 80 |
| CCn1c(-c2ccccc2)ncc(C(=O)C2=C(O)CCCC2=O)c1=O [Compound 49] | 80 |

Query: Lab note: need Plant response rating, Ragweed for Cc1cccc(-n2c(-c3ccccc3)ncc(C(=O)C3=C(O)CCCC3=O)c2=O)c1F [Compound 58] on ragweed (common ragweed, Ambrosia elatior), anyone have it?
Reply: 85

* * *

For each record, write down the corresponding Plant response rating, Sunflower.
System: sunflower (common oilseed sunflower, Helianthus annuus)
Test: Test B pre-/postemergence plant response
Type: in vivo
Details: 250 g ai/ha, Preemergence, 0 to 100 scale
Numbers only.

Field: example entries. Status: answers known.
| Smiles Entry | Val |
| --- | --- |
| O=C1CCCC(O)=C1C(=O)c1cnc(-c2ccccc2)n(-c2ccccc2Br)c1=O | 90 |
| Cc1cccc(-n2c(-c3cccc(Cl)c3)ncc(C(=O)C3=C(O)CCCC3=O)c2=O)c1 | 75 |
| Cc1ccc(C)c(-n2c(-c3ccccc3)ncc(C(=O)C3=C(O)CCCC3=O)c2=O)c1 | 100 |

Would you kindly look at the next entry?
Query: Can you look up the measured Plant response rating, Sunflower of `Cc1cc(F)ccc1-n1c(-c2ccccc2)ncc(C(=O)C2=C(O)CCCC2=O)c1=O` for me?
Reply: 80
